Each recorded value in this set is attributed to ChEMBL document CHEMBL1148568.

Quick record of IC50 values for Serine/threonine-protein kinase Chk1 (Homo sapiens).
Observable: IC50 (µM)

[a] COc1cc(-c2ccc3c(c2)NC(=O)/C3=C\c2[nH]c(C)c(CN(C)C)c2C(C)C)ccc1O
[b] COc1cc(-c2ccc3c(c2)NC(=O)/C3=C\c2[nH]c(C)cc2C(C)C)ccc1O
Q: Which value of IC50 is greater, the one for a or the one for b ? Choose, then provide that item's label.
Result: b

----------
Measured IC50 values are reported for all entries that follow.
# System name: Protein kinase C delta type (Homo sapiens, UniProt Q05655)
# Sequence (Q05655 whole entry): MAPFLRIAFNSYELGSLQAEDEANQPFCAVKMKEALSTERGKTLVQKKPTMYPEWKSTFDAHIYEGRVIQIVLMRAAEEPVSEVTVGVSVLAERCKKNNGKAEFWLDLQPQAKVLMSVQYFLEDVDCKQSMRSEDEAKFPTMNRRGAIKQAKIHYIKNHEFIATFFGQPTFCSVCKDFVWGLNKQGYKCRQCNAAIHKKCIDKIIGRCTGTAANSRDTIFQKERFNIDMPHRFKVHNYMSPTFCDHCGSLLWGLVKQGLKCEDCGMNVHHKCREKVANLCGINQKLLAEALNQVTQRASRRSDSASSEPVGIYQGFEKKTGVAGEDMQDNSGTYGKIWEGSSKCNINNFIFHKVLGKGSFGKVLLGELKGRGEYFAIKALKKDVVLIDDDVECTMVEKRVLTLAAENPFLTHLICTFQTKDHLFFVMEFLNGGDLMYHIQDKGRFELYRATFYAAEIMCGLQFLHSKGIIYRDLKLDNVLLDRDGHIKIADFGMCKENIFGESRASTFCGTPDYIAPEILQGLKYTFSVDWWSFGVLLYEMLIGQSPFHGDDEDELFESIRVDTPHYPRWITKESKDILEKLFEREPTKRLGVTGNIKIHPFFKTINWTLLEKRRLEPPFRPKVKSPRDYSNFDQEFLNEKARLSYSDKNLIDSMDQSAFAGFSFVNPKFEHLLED
# Protocol: Inhibitory activity against PKC delta

Compound structure: COc1cc(-c2ccc3c(c2)NC(=O)/C3=C\c2ncc[nH]2)ccc1O
IC50: > 50 µM

Q: Any idea what IC50 was measured for COc1cc(-c2ccc3c(c2)NC(=O)/C3=C\c2ccc[nH]2)ccc1O ?
Result: > 50 µM
